Target: Alkaline phosphatase, placental type (Homo sapiens)
Assay: PLAP enzyme inhibitors, biochemical, luminescence, HTS (AID 690)
Conditions: purified PLAP, luminescent substrate; at 20 µM; hits give high values
The campaign covered roughly 96,000 compounds. About 80 (0.08%) were called active. Not all results are given here. Potency and affinity values are given separately.
Give measured inhibition for each item. Keep answers brief.
Answers are plain numbers, in %.

[[record]]
compound = "O=C(CNS(=O)(=O)/C=C/c1ccccc1)OCC(=O)N1CCC(Cc2ccccc2)CC1"
test_readout = "inhibition"
quantitative_result = -18.3

[[record]]
compound = "CCOC(=O)C(C)n1cnc2c(cnn2-c2ccc(Cl)cc2)c1=O (configuration not stated)"
test_readout = "inhibition"
quantitative_result = 1.3

[[record]]
compound = "COc1ccc(CN(Cc2cc3ccc(C)cc3[nH]c2=O)Cc2nnnn2C2CCCC2)cc1"
test_readout = "inhibition"
quantitative_result = -54.8

[[record]]
compound = "COc1ccc(CNC(=O)c2ccccc2[N+](=O)[O-])cc1"
test_readout = "inhibition"
quantitative_result = -9.5


I need inhibition for every entry listed below, if you could help.
1. Cc1[nH]c2ccccc2c1/C=N/n1cnnc1
2. CCN(CC)S(=O)(=O)c1ccc(C(=O)Nc2cc(C)cc(C)c2)cc1
3. Cc1[nH]c2ccccc2c1C(=O)/C=C/c1ccccc1

7.5
6
10.6

====

Target: Alkaline phosphatase, placental type (Homo sapiens) (UniProt P05187)
Sequence (P05187 whole entry, looked up): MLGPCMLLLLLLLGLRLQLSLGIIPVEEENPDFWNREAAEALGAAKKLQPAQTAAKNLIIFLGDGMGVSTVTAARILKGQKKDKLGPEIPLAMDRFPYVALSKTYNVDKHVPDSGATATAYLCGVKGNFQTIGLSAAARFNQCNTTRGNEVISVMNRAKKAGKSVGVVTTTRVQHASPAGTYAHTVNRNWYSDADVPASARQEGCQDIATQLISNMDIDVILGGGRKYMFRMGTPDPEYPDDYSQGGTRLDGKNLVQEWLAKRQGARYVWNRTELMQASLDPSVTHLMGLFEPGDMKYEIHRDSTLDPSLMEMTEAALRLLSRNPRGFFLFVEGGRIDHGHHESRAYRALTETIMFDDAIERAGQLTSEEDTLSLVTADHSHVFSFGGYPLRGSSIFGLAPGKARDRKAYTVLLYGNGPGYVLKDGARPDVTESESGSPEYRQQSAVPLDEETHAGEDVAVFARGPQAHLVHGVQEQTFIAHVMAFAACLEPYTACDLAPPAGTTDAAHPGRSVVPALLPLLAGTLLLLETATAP
Experiment: PLAP enzyme inhibitors, biochemical, luminescence, HTS (AID 690)
Details: purified PLAP, luminescent substrate; at 20 µM; hits give high values
Out of some 96,000 compounds screened, about 80 (0.08%) were called active. Not all results are given here. Potency and affinity values are given separately.
Answer 0 (no) if inhibition is under -10%, and 1 (yes) if it is -10% or more.

Illustrative cases are given below, each with its answer.
[[record]]
record_smiles = "COc1ccc(C2=Nn3c(nnc3-c3ccco3)SC2)cc1OC"
assay_target = "Alkaline phosphatase, placental type (Homo sapiens) (UniProt P05187)"
label_value = "1 (yes)"

[[record]]
record_smiles = "N=c1oc2ccc3ccccc3c2cc1-c1nnc2n1CCCCC2"
assay_target = "Alkaline phosphatase, placental type (Homo sapiens) (UniProt P05187)"
label_value = "0 (no)"

[[record]]
record_smiles = "COc1ccc(-c2nnc3n2N=C(c2cccc(Br)c2)CS3)cc1OC"
assay_target = "Alkaline phosphatase, placental type (Homo sapiens) (UniProt P05187)"
label_value = "1 (yes)"

[[record]]
record_smiles = "C/C(=N\\Nc1nc(N)cc(Cl)n1)c1cccc([N+](=O)[O-])c1"
assay_target = "Alkaline phosphatase, placental type (Homo sapiens) (UniProt P05187)"
label_value = "0 (no)"

[[record]]
record_smiles = "O=C1/C(=C/c2cccs2)SC(=S)N1c1ccccc1"
assay_target = "Alkaline phosphatase, placental type (Homo sapiens) (UniProt P05187)"
label_value = "1 (yes)"


With those in mind, consider the next molecule.
Could you tell me if the measured inhibition of "CCc1ccc(/C(C)=N\Nc2ccc([N+](=O)[O-])cc2)cc1" reaches -10% or more?
1 (yes)

====

Biological target: Alkaline phosphatase, placental type (Homo sapiens) (UniProt P05187)
Experiment: PLAP enzyme inhibitors, biochemical, luminescence, HTS (AID 690)
Conditions: purified PLAP, luminescent substrate; at 20 µM; hits give high values
The campaign covered roughly 96,000 compounds. About 80 (0.08%) were called active. The list is a sample of the results. Entries with a potency or affinity are not part of this list.
test_readout: inhibition (%)
Answers are plain numbers, in %.

[[record]]
compound = "Cn1c(=O)oc2cc(S(=O)(=O)N3CCC(C(=O)N4CCc5ccccc5C4)CC3)ccc21"
unit_descriptor = "%"
quantitative_result = 12.8

[[record]]
compound = "O=P(O)(O)c1ccccc1OCCOCCOc1ccccc1P(=O)(O)O"
unit_descriptor = "%"
quantitative_result = 17.4

[[record]]
compound = "CCc1ccc(CN2CCN(S(=O)(=O)Cc3ccccc3)CC2)cc1"
unit_descriptor = "%"
quantitative_result = 11.5


I need inhibition for every entry listed below, if you could help.
1. CCOC(=O)c1ccc(CNC(=O)Cn2nnc(-c3ccc(C)cc3)n2)o1
2. CCN=c1scc(-c2ccco2)n1/N=C/c1ccc(O)cc1
3. Cc1ccc(S(=O)(=O)N[C@@H](CC(C)C)C(=O)NCc2ccco2)cc1

1.5
-11.5
18.5

====

Give measured inhibition for each item. Keep answers brief.
Biological target: Alkaline phosphatase, placental type (Homo sapiens) (UniProt P05187)
Experiment: PLAP enzyme inhibitors, biochemical, luminescence, HTS (AID 690)
Conditions: purified PLAP, luminescent substrate; at 20 µM; hits give high values
Out of some 96,000 compounds screened, about 80 (0.08%) were called active. These entries were drawn from the full list. Results with a measured potency or affinity are listed apart.
Give bare numbers, in %.

Some solved cases for reference:
[[record]]
compound = "COC(=O)C1=C(C)N=C2SC(C)C(=O)N2C1c1cccc(F)c1 (stereo unspecified)"
quantitative_result = -3.9

[[record]]
compound = "CNc1nnc(-c2cc3cc(Cl)ccc3oc2=O)s1"
quantitative_result = -24.2

[[record]]
compound = "CCC(=O)NCCc1nc2cc(NC(=O)c3ccccc3OC)ccc2n1C"
quantitative_result = -60.5

[[record]]
compound = "C=CCNc1ncnc2ccccc12"
quantitative_result = 7.5

[[record]]
compound = "COc1ccc(NC(=O)Cc2cccs2)c(OC)c1"
quantitative_result = 9.5


I need inhibition for every entry listed below, if you could help.
1. CCCCOC(=O)CNc1n[nH]c(=S)[nH]c1=O
2. CC(=O)Nc1ccc(-c2cc3ccccc3o2)cc1
3. COc1ccc(CNC(=O)c2ccc(-c3ccccc3)cc2)cc1
4. Cc1nc2c(cc(Oc3ccc(S(=O)(=O)N4CCOCC4)cn3)c3ccsc32)s1
5. COc1cc(CNCCc2ccc(F)cc2)ccc1OCc1ccc(Cl)nc1
6. CCCCOC(=O)C(C)Nc1n[nH]c(=O)[nH]c1=O (stereo unspecified)

1. -1.8
2. 0.5
3. 6.9
4. -48.6
5. -50.6
6. 3.9

====

Target: Alkaline phosphatase, placental type (Homo sapiens) (UniProt P05187)
Assay: PLAP enzyme inhibitors, biochemical, luminescence, HTS (AID 690)
Conditions: purified PLAP, luminescent substrate; at 20 µM; hits give high values
Hit rate of the full screen: of about 96,000 compounds, about 80 (0.08%) were called active. Not all results are given here. Entries with a potency or affinity are not part of this list.
Give measured inhibition for each item. Keep answers brief.

Some solved cases for reference:
[[record]]
compound = "Cc1ccc2nc(SCC(=O)Nc3ccc4c(c3)OCCO4)[nH]c2c1"
result = "-75.7% (inactive)"

[[record]]
compound = "CCN1/C(=C/C(=O)c2ccco2)Sc2ccccc21"
result = "-0.2% (inactive)"

[[record]]
compound = "CCN1/C(=C2\\OC(=S)N(C)C2=O)Sc2ccccc21"
result = "13.9% (inactive)"

[[record]]
compound = "CCOc1ccc(-c2nnc3sc(COc4ccc(C)cc4)nn23)cc1"
result = "-25.7% (inactive)"

[[record]]
compound = "Cc1ccc(OCn2c(=O)sc3ccccc32)cc1"
result = "-9% (inactive)"

[[record]]
compound = "CS(=O)(=O)NCCSCc1ccc(Cl)cc1"
result = "-9.2% (inactive)"


I need inhibition for every entry listed below, if you could help.
1. c1ccc(SCCc2ccncc2)cc1
2. CC(C)Oc1ccc(CNC(=O)CC(c2ccccc2)c2cc(Cl)ccc2O)cc1 (configuration not stated)
3. C[n+]1ccc(/C=C/c2ccc(Br)cc2)cc1
4. CN(C)c1ccc(/C=C/c2cc[n+]([O-])cc2)cc1
5. Cc1cc(C)nc(NN2C(=O)/C(=C/c3ccccc3)SC2=S)n1
6. O=C(O)CSCc1ccc(Cl)cc1

1: -3.2% (inactive); 2: -26.3% (inactive); 3: 33.9% (inactive); 4: 5.5% (inactive); 5: 12.4% (inactive); 6: -5.7% (inactive)

====

Give measured inhibition for each item. Keep answers brief.
Biological target: Alkaline phosphatase, placental type (Homo sapiens)
Assay: PLAP enzyme inhibitors, biochemical, luminescence, HTS (AID 690)
Settings: purified PLAP, luminescent substrate; at 20 µM; hits give high values
The campaign covered roughly 96,000 compounds. About 80 (0.08%) were called active. The list is a sample of the results. Entries with a potency or affinity are not part of this list.
One number for each entry, in %.

Some solved cases for reference:
[[record]]
molecule = "COC(=O)c1ccc(C)c(NC(=O)Cn2cnc3ccccc3c2=O)c1"
test_readout = "inhibition"
unit_descriptor = "%"
quantitative_result = 5.9

[[record]]
molecule = "CCOc1ccc(-c2nnc3sc(COc4ccccc4)nn23)cc1"
test_readout = "inhibition"
unit_descriptor = "%"
quantitative_result = 8.3


I need inhibition for every entry listed below, if you could help.
1. CCC(C)(C)NC(=O)C(c1cccs1)N(CC1CCCO1)C(=O)Cn1nnc2ccccc21 (stereo not given)
2. CCOCC(O)CSCc1ccc(Cl)cc1 (stereo not given)
3. Cc1ccc(CS/C(Nc2ccccc2C)=C(\C#N)C(=O)NCc2ccco2)c(C)c1
4. O=P(C1=C(N2CCOCC2)/C(=C\c2ccccc2)CC1)(N1CCOCC1)N1CCOCC1
5. O=C1C2C3C=CC(C3)C2C(=O)N1c1cccnc1 (stereo not given)

1. -0.8
2. -5
3. -32.5
4. -69.4
5. 15.9

I need inhibition for every entry listed below, if you could help.
1. CC(C)C1N=C2c3ccccc3N=C(SCC(=O)NCCc3ccc(S(N)(=O)=O)cc3)N2C1=O (stereo not given)
2. CN1CCN(c2nc3c(c(=O)n(C)c(=O)n3C)n2CC(=O)C23CC4CC(CC(C4)C2)C3)CC1
3. O=C1Nc2ccccc2/C1=N\N=C\C1=C(N2CCOCC2)C(=C\c2ccccc2)/CC1

-3.1
-54.5
-12.2
